Published pIC50 for Somatostatin receptor type 3 (Homo sapiens), assembled from different documents, is shown next.
pIC50: −log10 of the molar value.

# STRUCTURE_NOTATION, BOUND_TYPE, pIC50
records = [
    ("CC(C)NCc1ccc(C[C@@H]2NC(=O)[C@@H](N(C)C(=O)c3ccc4ccccc4c3)NC(=O)[C@H](Cc3ccccc3)NC(=O)[C@H](Cc3ccccc3)NC(=O)[C@H](CCCCN)NC(=O)[C@@H](N)CSSC[C@@H](C(=O)O)NC(=O)[C@H](CO)NC(=O)[C@H]([C@@H](C)O)NC(=O)[C@H](Cc3ccc(O)cc3)NC(=O)[C@H]([C@@H](C)O)NC2=O)cc1", "=", 6.05),
    ("C[C@@H]1NC(=O)[C@H](Cc2ccccc2)NC(=O)[C@@H](N)CSSC[C@@H](C(=O)O)NC(=O)[C@H](C)NC(=O)[C@H]([C@@H](C)O)NC(=O)[C@H](CCCCN)NC(=O)[C@H](Cc2c[nH]c3ccccc23)NC1=O", "<", 5.00),
    ("C[C@@H](O)[C@@H]1NC(=O)[C@H](CCCCN)NC(=O)[C@@H](Cc2c[nH]c3ccccc23)NC(=O)[C@H](Cc2ccccc2)NC(=O)[C@H](Cc2ccccc2)NC(=O)[C@@H](N)CSSC[C@@H](C(=O)O)NC1=O", "<", 6.00),
    ("C[C@@H](O)[C@@H]1NC(=O)[C@H](CCCCN)NC(=O)[C@@H](Cc2c[nH]c3ccccc23)NC(=O)[C@H](Cc2ccccc2)NC(=O)[C@H](Cc2ccccc2)NC(=O)[C@@H](N)CSSC[C@@H](C(=O)O)NC(=O)[C@@H](N(C)C(=O)c2ccccc2)NC1=O", "<", 6.00),
    ("CC(C)NCc1ccc(C[C@@H]2NC(=O)[C@@H](Cc3ccc4ccccc4c3)NC(=O)[C@H](Cc3ccccc3)NC(=O)[C@H](Cc3ccccc3)NC(=O)[C@H](CCCCN)NC(=O)[C@@H](N)CSSC[C@@H](C(=O)O)N(C)C(=O)[C@H](CO)NC(=O)[C@H]([C@@H](C)O)NC(=O)[C@H](Cc3ccccc3)NC(=O)[C@H]([C@@H](C)O)NC2=O)cc1", "<", 6.00),
    ("C[C@@H](O)[C@@H]1NC(=O)[C@H](CCCCN)NC(=O)[C@@H]([C@@H](C)c2ccc3ccccc3c2)NC(=O)[C@H](Cc2ccc(O)cc2)NC(=O)[C@H](Cc2ccccc2)NC(=O)[C@@H](N)CSSC[C@@H](C(=O)O)NC(=O)[C@H](Cc2ccccc2)NC1=O", "<", 5.00),
    ("COc1cccc(-c2c[nH]c([C@H]3Cc4c([nH]c5ccccc45)[C@](c4cnn(C)c4)(c4noc(C)n4)N3)n2)n1", "=", 8.68),
    ("c1ccc(-c2nc([C@H]3Cc4c([nH]c5ccccc45)[C@@H](C4CCOCC4)N3)c[nH]2)cc1", "=", 6.31),
    ("CC(C)[C@@H]1NC(=O)[C@H](CCCCN)NC(=O)[C@@H](Cc2c[nH]c3ccccc23)N(C)C(=O)[C@H](Cc2ccc(O)cc2)NC(=O)[C@H](C)N(C)C(=O)[C@H](Cc2ccccc2)NC1=O", "=", 6.69),
]

###

Published IC50 for Somatostatin receptor type 3 (Homo sapiens, UniProt P32745), assembled from different documents, is shown next.

# STRUCTURE_NOTATION, BOUND_TYPE, IC50 (nM)
measured = [
    ("CC(C)NCc1ccc(C[C@@H]2NC(=O)[C@H](N(C)C(=O)c3ccc4ccccc4c3)NC(=O)[C@H](Cc3ccccc3)NC(=O)[C@H](Cc3ccccc3)NC(=O)[C@H](CCCCN)NC(=O)[C@@H](N)CSSC[C@@H](C(=O)O)NC(=O)[C@H](CO)NC(=O)[C@H]([C@@H](C)O)NC(=O)[C@H](Cc3ccc(O)cc3)NC(=O)[C@H]([C@@H](C)O)NC2=O)cc1", ">", 1000),
    ("CC(C)NCc1ccc(C[C@@H]2NC(=O)[C@@H](Cc3c[nH]c4ccccc34)NC(=O)[C@H](Cc3ccccc3)NC(=O)[C@H](Cc3ccccc3)NC(=O)[C@H](CCCCN)NC(=O)[C@@H](NC(=O)[C@@H](N)Cc3ccc(O)cc3)CSSC[C@@H](C(=O)O)NC(=O)[C@H](CO)NC(=O)[C@H]([C@@H](C)O)NC(=O)[C@H](Cc3ccccc3)NC(=O)[C@H]([C@@H](C)O)NC2=O)cc1", "=", 713),
    ("C[C@@H](O)[C@H](NC(=O)[C@@H]1CSSC[C@@H](NC(=O)[C@@H](N)Cc2ccccc2)C(=O)N[C@@H](Cc2cccnc2)C(=O)N[C@H](Cc2c[nH]c3ccccc23)C(=O)N[C@@H](CCCCN)C(=O)N[C@@H]([C@@H](C)O)C(=O)N1)C(N)=O", "=", 934),
]

###

Published IC50 for Somatostatin receptor type 3 (Homo sapiens, UniProt P32745), assembled from different documents, is shown next.

# MOLECULE, TESTED_SYSTEM, BOUND_TYPE, IC50 (nM)
records = [
    ("CC(C)[C@@H]1NC(=O)[C@H](CCCCN)NC(=O)[C@@H](Cc2c[nH]c3ccccc23)NC(=O)[C@H](Cc2ccc(O)cc2)NC(=O)[C@H](NC(=O)[C@H](N)Cc2ccc3ccccc3c2)CSSC[C@@H](C(=O)N[C@H](Cc2ccc3ccccc3c2)C(N)=O)NC1=O", "Somatostatin receptor type 3 (Homo sapiens, UniProt P32745)", "=", 1080),
    ("C[C@@H](O)[C@@H]1NC(=O)[C@H](CCCCN)NC(=O)[C@@H]([C@@H](C)c2ccc3ccccc3c2)NC(=O)[C@H](Cc2ccc(N)cc2)NC(=O)[C@H](Cc2ccccc2)NC(=O)[C@H](NC(=O)[C@@H](N)Cc2ccc(O)cc2)CSSC[C@@H](C(=O)O)NC(=O)[C@H](Cc2ccccc2)NC1=O", "Somatostatin receptor type 3 (Homo sapiens, UniProt P32745)", "=", 171),
    ("NCCCCCN1Cc2[nH]c3ccccc3c2C[C@@H](NC(=O)CC(c2ccccc2)c2ccccc2)C1=O", "Somatostatin receptor type 3 (Homo sapiens, UniProt P32745)", ">", 1000),
    ("C[C@@H](O)[C@@H]1NC(=O)[C@H](Cc2ccccc2)NC(=O)[C@H]([C@@H](C)O)NC(=O)[C@H](CCCCN)NC(=O)[C@@H](Cc2c[nH]c3ccccc23)NC(=O)[C@H](Cc2ccccc2)NC(=O)[C@H](Cc2ccccc2)NC(=O)[C@@H](N)CSSC[C@@H](C(=O)O)NC(=O)[C@H](CO)NC1=O", "Somatostatin receptor type 3 (Homo sapiens, UniProt P32745)", "=", 222),
    ("CC(C)NCc1ccc(C[C@@H]2NC(=O)[C@@H](Cc3c[nH]c4ccccc34)NC(=O)[C@H](Cc3ccccc3)NC(=O)[C@@H]3CCC(=O)NCCCC[C@H](NC(=O)[C@H]([C@@H](C)O)NC2=O)C(=O)N[C@@H]([C@@H](C)O)C(=O)N[C@@H](CO)C(=O)N[C@H](C(=O)O)CSSC[C@H](NC(=O)[C@@H](N)Cc2ccc(O)cc2)C(=O)N[C@@H](CCCCN)C(=O)N3)cc1", "Somatostatin receptor type 3 (Homo sapiens, UniProt P32745)", ">", 1000),
    ("CC(C)NCc1ccc(C[C@@H]2NC(=O)[C@@H](N(C)C(=O)c3ccc4ccccc4c3)NC(=O)[C@H](Cc3ccccc3)NC(=O)[C@H](NC(=O)[C@@H](N)Cc3ccc(O)cc3)CSSC[C@@H](C(=O)N[C@@H](Cc3ccc4ccccc4c3)C(N)=O)NC(=O)[C@H](Cc3ccccc3)NC2=O)cc1", "Somatostatin receptor type 3 (Homo sapiens, UniProt P32745)", "=", 410),
    ("C[C@@H]1NC(=O)[C@H](Cc2ccccc2)NC(=O)[C@@H](NC(=O)[C@@H](N)Cc2ccc(O)cc2)CSSC[C@@H](C(=O)O)NC(=O)[C@H](Cc2ccccc2)NC(=O)[C@H]([C@@H](C)O)NC(=O)[C@H](CCCCN)NC(=O)[C@@H]([C@@H](C)c2c[nH]c3ccccc23)NC1=O", "Somatostatin receptor type 3 (Homo sapiens, UniProt P32745)", "=", 381),
    ("CC(C)NCc1ccc(C[C@@H]2NC(=O)[C@@H](Cc3c[nH]c4ccccc34)NC(=O)[C@H](Cc3ccccc3)NC(=O)[C@@H]3CCC(=O)NCC[C@H](NC(=O)[C@H](Cc4ccccc4)NC(=O)[C@H]([C@@H](C)O)NC2=O)C(=O)N[C@@H](CO)C(=O)N[C@H](C(=O)O)CSSC[C@H](NC(=O)[C@@H](N)Cc2ccc(O)cc2)C(=O)N[C@@H](CCCCN)C(=O)N3)cc1", "Somatostatin receptor type 3 (Homo sapiens, UniProt P32745)", ">", 1000),
    ("NCCCCCN1Cc2[nH]c3ccccc3c2C[C@@H](NC(=O)Cc2ccccc2)C1=O", "Somatostatin receptor type 3 (Homo sapiens, UniProt P32745)", ">", 1000),
    ("Fc1ccc(-c2c[nH]c([C@H]3Cc4c([nH]c5ccccc45)[C@@H](C4CCOCC4)N3)n2)c(F)c1", "Somatostatin receptor type 3 (Homo sapiens, UniProt P32745)", "=", 23),
    ("CC(C)[C@H](NC(=O)[C@H](CCCCN)NC(=O)[C@@H](Cc1c[nH]c2ccccc12)NC(=O)[C@H](Cc1ccc(O)cc1)NC(=O)[C@@H](Cc1ccc(Cl)cc1)NC(=O)[C@@H](N)Cc1ccc2ccccc2c1)C(=O)N[C@@H](Cc1ccccc1)C(=O)N[C@@H](Cc1ccc2ccccc2c1)C(N)=O", "Somatostatin receptor type 3 (Homo sapiens, UniProt P32745)", "=", 1610),
    ("CC(C)NCc1ccc(C[C@@H]2NC(=O)C(Cc3c[nH]c4ccccc34)NC(=O)[C@H](Cc3ccccc3)NC(=O)[C@@H](Cc3ccccc3)NC(=O)[C@H](NC(=O)[C@@H](N)Cc3ccc(O)cc3)CSSC[C@@H](C(=O)O)NC(=O)[C@@H]([C@@H](C)O)NC(=O)[C@H](Cc3ccccc3)NC(=O)[C@@H]([C@@H](C)O)NC2=O)cc1 (stereo in doubt)", "Somatostatin receptor type 3 (Homo sapiens, UniProt P32745)", "=", 445),
    ("C[C@H](c1ccc2ccccc2c1)[C@@H]1NC(=O)[C@H](Cc2ccc(N)cc2)NC(=O)[C@H](Cc2ccccc2)NC(=O)[C@H](NC(=O)[C@@H](N)Cc2ccc(O)cc2)CSSC[C@@H](C(=O)O)NC(=O)[C@H](Cc2ccccc2)NC(=O)[C@H]([C@@H](C)O)NC(=O)[C@H](CCCCN)NC1=O", "Somatostatin receptor type 3 (Homo sapiens, UniProt P32745)", "=", 595),
    ("CC(C)NCc1ccc(C[C@@H]2NC(=O)[C@@H](Cc3c[nH]c4ccccc34)NC(=O)[C@H]3CCC(=O)NCC[C@H](NC(=O)[C@H]([C@@H](C)O)NC2=O)C(=O)N[C@@H]([C@@H](C)O)C(=O)N[C@@H](CO)C(=O)N[C@H](C(=O)O)CSSC[C@H](NC(=O)[C@@H](N)Cc2ccc(O)cc2)C(=O)N[C@@H](CCCCN)C(=O)N[C@@H](Cc2ccccc2)C(=O)N3)cc1", "Somatostatin receptor type 3 (Homo sapiens, UniProt P32745)", ">", 1000),
    ("CC(C)NCc1ccc(C[C@@H]2NC(=O)[C@H](N(C)C(=O)c3ccc4ccccc4c3)NC(=O)[C@H](Cc3ccccc3)NC(=O)[C@H](Cc3ccccc3)NC(=O)[C@H](CCCCN)NC(=O)[C@@H](N)CSSC[C@@H](C(=O)O)NC(=O)[C@H](CO)NC(=O)[C@H]([C@@H](C)O)NC(=O)[C@H](Cc3ccc(O)c(I)c3)NC(=O)[C@H]([C@@H](C)O)NC2=O)cc1", "Somatostatin receptor type 3 (Homo sapiens, UniProt P32745)", "=", 536),
]
